system: HepG2; assay: Growth inhibition of human HepG2 cells; format: functional, cell-based
pIC50: −log10 of the molar value.
measurement_kind: pIC50

Sample answers from the record:
Ask: Name the recorded pIC50 for C=C1[C@@H](OC(C)=O)CC[C@@]2(C)C[C@H](OC(C)=O)C3=C(C)C[C@H](OC(=O)c4ccccc4)[C@@H]([C@@H](OC(C)=O)[C@H]12)C3(C)C .
Reply: 3.84

Ask: Name the recorded pIC50 for C=C1[C@@H](OC(C)=O)C[C@H](OC(=O)/C=C/c2ccccc2)[C@@]2(C)C[C@H](OC(C)=O)C3=C(C)C[C@H](OC(=O)C(C)C(C)O)[C@@H]([C@@H](OC(C)=O)[C@H]12)C3(C)C (stereo not given in full) .
Reply: 4.09

a = C=C1[C@@H](OC(C)=O)C[C@H](O)[C@@]2(C)C[C@H](OC(C)=O)C3=C(C)C[C@H](OC(=O)C(C)CC)[C@@H]([C@@H](OC(C)=O)[C@H]12)C3(C)C (stereo not given in full)
b = C=C1[C@@H](OC(C)=O)CC[C@@]2(C)[C@@H](O)[C@H](OC(C)=O)C3=C(C)C[C@H](OC(C)=O)[C@@H]([C@@H](OC(C)=O)[C@H]12)C3(C)C
c = C=C1[C@@H](OC(C)=O)CC[C@@]2(C)C[C@H](OC(C)=O)C3=C(C)C[C@H](O)[C@@H]([C@@H](OC(C)=O)[C@H]12)C3(C)C
Ask: Arrange the 3 compounds by rising pIC50, starting with the smallest. Lab note: record answer as labels in requested order.
Reply: c, b, a
(c: 3.67, b: 3.89, a: 4.12)

---

biological target: ATP-dependent translocase ABCB1 (Homo sapiens, UniProt P08183); assay: Inhibition of Pgp in multidrug-resistant human 2780AD cells assessed as calcein accumulation at 0.25 ug/mL relative to control; assay type: cell-based; parameters: scale not given: the % may be the effect or the level left; conditions: a2780 adr
Sequence (P08183 whole entry): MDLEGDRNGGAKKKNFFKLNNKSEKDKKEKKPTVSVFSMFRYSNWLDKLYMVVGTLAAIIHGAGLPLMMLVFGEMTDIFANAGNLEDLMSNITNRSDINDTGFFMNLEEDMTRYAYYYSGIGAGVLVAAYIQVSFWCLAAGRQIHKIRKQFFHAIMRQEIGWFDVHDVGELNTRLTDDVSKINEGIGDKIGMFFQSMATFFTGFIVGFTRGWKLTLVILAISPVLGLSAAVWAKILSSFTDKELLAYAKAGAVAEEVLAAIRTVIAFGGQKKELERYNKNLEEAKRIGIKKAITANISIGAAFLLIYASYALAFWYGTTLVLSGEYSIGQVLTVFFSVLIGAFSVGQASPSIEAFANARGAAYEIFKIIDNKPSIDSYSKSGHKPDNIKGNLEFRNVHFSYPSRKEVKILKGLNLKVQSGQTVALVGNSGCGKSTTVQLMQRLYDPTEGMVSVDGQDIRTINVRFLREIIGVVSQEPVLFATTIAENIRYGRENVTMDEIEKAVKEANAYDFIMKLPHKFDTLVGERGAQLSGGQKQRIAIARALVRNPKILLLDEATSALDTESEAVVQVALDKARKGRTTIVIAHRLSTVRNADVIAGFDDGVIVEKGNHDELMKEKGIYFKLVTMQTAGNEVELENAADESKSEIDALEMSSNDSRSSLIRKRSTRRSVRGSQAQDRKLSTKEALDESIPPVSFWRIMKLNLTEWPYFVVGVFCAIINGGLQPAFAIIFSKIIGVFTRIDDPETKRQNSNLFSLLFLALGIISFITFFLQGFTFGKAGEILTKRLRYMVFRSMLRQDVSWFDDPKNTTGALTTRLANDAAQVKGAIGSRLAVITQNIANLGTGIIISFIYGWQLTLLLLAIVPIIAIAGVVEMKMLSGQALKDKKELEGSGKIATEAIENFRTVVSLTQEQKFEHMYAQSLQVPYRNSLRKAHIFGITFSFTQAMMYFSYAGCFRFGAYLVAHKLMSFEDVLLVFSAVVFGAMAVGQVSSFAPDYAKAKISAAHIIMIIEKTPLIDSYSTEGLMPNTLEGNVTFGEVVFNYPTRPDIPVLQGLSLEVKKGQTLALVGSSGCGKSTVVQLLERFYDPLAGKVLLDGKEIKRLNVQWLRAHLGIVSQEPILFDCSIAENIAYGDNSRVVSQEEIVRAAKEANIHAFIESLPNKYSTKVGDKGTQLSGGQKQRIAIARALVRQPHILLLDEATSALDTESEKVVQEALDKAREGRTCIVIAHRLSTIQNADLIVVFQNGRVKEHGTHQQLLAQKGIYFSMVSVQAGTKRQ
measurement_kind: Activity (%)

Ask: Name the recorded Activity for C=C1[C@@H](OC(C)=O)C[C@H](OC(=O)/C=C/c2ccccc2)[C@@]2(C)C[C@H](OC(C)=O)C3=C(C)C[C@H](OC(=O)C(C)C(C)O)[C@@H]([C@@H](OC(C)=O)[C@H]12)C3(C)C (stereo not given in full) .
Reply: 97

Ask: Name the recorded Activity for C=C1[C@@H](OC(C)=O)CC[C@@]2(C)C[C@H](OC(=O)/C=C/c3ccccc3)C3=C(C)C[C@H](OC(C)=O)[C@@H]([C@@H](OC(C)=O)[C@H]12)C3(C)C .
Reply: 92

Ask: Name the recorded Activity for C=C1[C@@H](OC(=O)/C=C/c2ccccc2)CC[C@@]2(C)C[C@H](OC(C)=O)C3=C(C)C[C@H](OC(C)=O)[C@@H]([C@@H](OC(C)=O)[C@H]12)C3(C)C .
Reply: 102

Ask: Name the recorded Activity for C=C1[C@@H](OC(C)=O)CC[C@@]2(C)C[C@H](OC(C)=O)C3=C(C)C[C@H](OC(=O)CCC)[C@@H]([C@@H](OC(C)=O)[C@H]12)C3(C)C .
Reply: 97

Ask: Name the recorded Activity for C=C1[C@@H](OC(C)=O)C[C@H](O)[C@@]2(C)C[C@H](OC(C)=O)C3=C(C)C[C@H](OC(=O)C(C)CC)[C@@H]([C@@H](OC(C)=O)[C@H]12)C3(C)C (stereo not given in full) .
Reply: 94

---

Examples of molecules with documented IC50 follow.
tested on: WI-38 VA13; assay: Growth inhibition of human VA13 cells; type: functional, cell-based
Give the value, in units of µM, as a plain number.

Sample answers from the record:
Ask: Name the recorded IC50 for C=C1[C@@H](OC(C)=O)C[C@H](O)[C@@]2(C)C[C@H](OC(C)=O)C3=C(C)C[C@H](OC(=O)C(C)CC)[C@@H]([C@@H](OC(C)=O)[C@H]12)C3(C)C (stereo not given in full) .
Reply: 79.1

Ask: Name the recorded IC50 for C=C1[C@@H](OC(C)=O)CC[C@@]2(C)C[C@H](OC(C)=O)C3=C(C)C[C@H](OC(C)=O)[C@@H]([C@@H](OC(=O)c4ccccc4)[C@H]12)C3(C)C .
Reply: 175

Next, consider the following molecule.
Ask: Name the recorded IC50 for C=C1[C@@H](OC(C)=O)CC[C@@]2(C)C[C@H](OC(C)=O)C3=C(C)C[C@H](OC(C)=O)[C@@H]([C@@H](OC(C)=O)[C@H]12)C3(C)C .
Reply: 53.1

---

biological target: ATP-dependent translocase ABCB1 (Homo sapiens, UniProt P08183); assay: Inhibition of Pgp in multidrug-resistant human 2780AD cells assessed as vincristine accumulation at 1.0 ug/mL relative to control; assay type: cell-based; parameters: scale not given: the % may be the effect or the level left; conditions: a2780 adr
measurement_kind: Activity (%)

Sample answers from the record:
Ask: What reported Activity corresponds to C=C1[C@@H](OC(C)=O)CC[C@@]2(C)C[C@H](OC(=O)/C=C/c3ccccc3)C3=C(C)C[C@H](OC(C)=O)[C@@H]([C@@H](OC(C)=O)[C@H]12)C3(C)C on ATP-dependent translocase ABCB1 (Homo sapiens, UniProt P08183)?
Reply: 209

Ask: What reported Activity corresponds to C=C1[C@@H](OC(C)=O)CC[C@@]2(C)[C@@H](O)[C@H](OC(C)=O)C3=C(C)C[C@H](OC(C)=O)[C@@H]([C@@H](OC(C)=O)[C@H]12)C3(C)C on ATP-dependent translocase ABCB1 (Homo sapiens, UniProt P08183)?
Reply: 108

Ask: What reported Activity corresponds to C=C1[C@@H](OC(C)=O)CC[C@@]2(C)C[C@H](OC(C)=O)C3=C(C)C[C@H](O)[C@@H]([C@@H](OC(C)=O)[C@H]12)C3(C)C on ATP-dependent translocase ABCB1 (Homo sapiens, UniProt P08183)?
Reply: 147

Ask: What reported Activity corresponds to C=C1[C@@H](OC(C)=O)CC[C@@]2(C)C[C@H](O)C3=C(C)C[C@H](OC(=O)/C=C/c4ccccc4)[C@@H]([C@@H](OC(C)=O)[C@H]12)C3(C)C on ATP-dependent translocase ABCB1 (Homo sapiens, UniProt P08183)?
Reply: 272

Ask: What reported Activity corresponds to C=C1[C@@H](OC(C)=O)CC[C@@]2(C)C[C@H](OC(=O)/C=C/c3ccccc3)C3=C(C)C[C@H](O)[C@@H]([C@@H](OC(C)=O)[C@H]12)C3(C)C on ATP-dependent translocase ABCB1 (Homo sapiens, UniProt P08183)?
Reply: 190

A = C=C1[C@@H](OC(C)=O)CC[C@@]2(C)C[C@H](OC(=O)/C=C/c3ccccc3)C3=C(C)C[C@H](OC(=O)/C=C/c4ccccc4)[C@@H]([C@@H](OC(C)=O)[C@H]12)C3(C)C
B = C=C1[C@@H](OC(C)=O)CC[C@@]2(C)C[C@H](OC(C)=O)C3=C(C)C[C@H](OC(=O)/C=C/c4ccccc4)[C@@H]([C@@H](OC(C)=O)[C@H]12)C3(C)C
Ask: When A and B are compared, which has the higher number for Activity? Output the label that corresponds to your choice.
Reply: B
(B: 140%, A: 92%)

---

system: HepG2; assay: Growth inhibition of human HepG2 cells; type: functional, cell-based
measurement_kind: IC50 (µM)

1 = C=C1[C@@H](OC(C)=O)CC[C@@]2(C)C[C@H](OC(C)=O)C3=C(C)C[C@H](OC(=O)C(C)C)[C@@H]([C@@H](OC(C)=O)[C@H]12)C3(C)C
2 = C=C1[C@@H](OC(C)=O)CC[C@@]2(C)C[C@H](OC(C)=O)C3=C(C)C[C@H](OC(C)=O)[C@@H]([C@@H](OC(C)=O)[C@H]12)C3(C)C [TAXUYUNNANINE C]
3 = C=C1[C@@H](OC(C)=O)CC[C@@]2(C)C[C@H](OC(C)=O)C3=C(C)C[C@H](OC(=O)C(C)CC)[C@@H]([C@@H](OC(C)=O)[C@H]12)C3(C)C (stereo partly specified)
4 = C=C1[C@@H](OC(=O)/C=C/c2ccccc2)CC[C@@]2(C)C[C@H](OC(C)=O)C3=C(C)C[C@H](OC(C)=O)[C@@H]([C@@H](OC(C)=O)[C@H]12)C3(C)C
5 = C=C1[C@@H](OC(C)=O)CC[C@@]2(C)C[C@H](OC(C)=O)C3=C(C)C[C@H](OC(C)=O)[C@@H]([C@@H](O)[C@H]12)C3(C)C
Ask: sort_by: IC50; order: ascending; scope: items listed above Lab note: record answer as labels in requested order.
Reply: 4, 2, 1, 3, 5

I = C=C1[C@@H](OC(C)=O)CC[C@@]2(C)C[C@H](OC(=O)/C=C/c3ccccc3)C3=C(C)C[C@H](O)[C@@H]([C@@H](OC(C)=O)[C@H]12)C3(C)C
II = C=C1[C@@H](OC(C)=O)CC[C@@]2(C)C[C@H](OC(C)=O)C3=C(C)C[C@H](OC(C)=O)[C@@H]([C@@H](OC(=O)c4ccccc4)[C@H]12)C3(C)C
III = C=C1[C@@H](OC(C)=O)CC[C@@]2(C)C[C@H](OC(C)=O)C3=C(C)CC[C@@H]([C@@H](OC(C)=O)[C@H]12)C3(C)C
Ask: Rank by IC50 (largest to smallest). Lab note: record answer as labels in requested order.
Reply: II, I, III
(II: 51.9 µM, I: 15.3 µM, III: 10.3 µM)
